- Test system: 922993-354-T-J3-PDC complex spheroids, viability, % test/control;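 note: spheroids exposed to the agents for 7 days before readout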
- Measurement Protocol: Anticancer human tumor 922993-354-T-J3-PDC patient-derived endometrial carcinoma cell line growth inhibition [CLK]; active = viability on the fitted dose curve at most 10% of control; inactive = the rest
- Condition Description: second compound 0.316 µM; first compound 10 µM
// classify into active, inactive

Worked examples, 3 compounds total:
Compound: CC1COCCN1c1cc(C2(S(C)(=N)=O)CC2)nc(-c2ccnc3[nH]ccc23)n1 (stereo unspecified) + CNC(=O)c1ccc(Nc2nc(OC3CCCC3)c3c(-c4ccc5nc(C)oc5c4)c[nH]c3n2)c(OC)c1
Group: inactive

Compound: COc1cccc2c1C(=O)c1c(O)c3c(c(O)c1C2=O)CC(O)(C(=O)CO)CC3OC1CC(N)C(O)C(C)O1 (stereo unspecified) + CN1CCN(c2cc(C(=O)Nc3cc4cc(-c5cnn(C)c5)ccc4cn3)ccn2)CC1
Group: active

Compound: O=c1[nH]cc(F)c(=O)[nH]1 + CNC(=O)c1ccc(Nc2nc(OC3CCCC3)c3c(-c4ccc5nc(C)oc5c4)c[nH]c3n2)c(OC)c1
Group: inactive

Exam item: What outcome does the record of this test show for Nc1ccn(C2OC(CO)C(O)C2(F)F)c(=O)n1 (stereo unspecified) + CN1CCN(c2cc(C(=O)Nc3cc4cc(-c5cnn(C)c5)ccc4cn3)ccn2)CC1 ?
Marked response: inactive

Exam item: What outcome does the record of this test show for C#Cc1c(F)ccc2cc(O)cc(-c3ncc4c(N5CC6CCC(C5)N6)nc(OCC56CCCN5CC(F)C6)nc4c3F)c12 (stereo unspecified) + CN1CCN(c2cc(C(=O)Nc3cc4cc(-c5cnn(C)c5)ccc4cn3)ccn2)CC1 ?
Marked response: inactive

Exam item: What outcome does the record of this test show for C=C(F)C(=O)N1CCN(c2nc(OCC3CCCN3C)nc3c2CCN(c2cccc4cccc(Cl)c24)C3)CC1CC#N (stereo unspecified) + CN1CCN(c2cc(C(=O)Nc3cc4cc(-c5cnn(C)c5)ccc4cn3)ccn2)CC1 ?
Marked response: active

Exam item: What outcome does the record of this test show for C=CC(=O)N1CCN(c2nc(=O)n(-c3c(C)ccnc3C(C)C)c3nc(-c4c(O)cccc4F)c(F)cc23)C(C)C1 (stereo unspecified) + CN1CCN(c2cc(C(=O)Nc3cc4cc(-c5cnn(C)c5)ccc4cn3)ccn2)CC1 ?
Marked response: inactive

Exam item: What outcome does the record of this test show for Nc1ccccc1NC(=O)c1ccc(CNC(=O)OCc2cccnc2)cc1 + CNC(=O)c1ccc(Nc2nc(OC3CCCC3)c3c(-c4ccc5nc(C)oc5c4)c[nH]c3n2)c(OC)c1 ?
Marked response: inactive

Exam item: What outcome does the record of this test show for CC1(C)CCC(CN2CCN(c3ccc(C(=O)NS(=O)(=O)c4ccc(NCC5CCOCC5)c([N+](=O)[O-])c4)c(Oc4cnc5[nH]ccc5c4)c3)CC2)=C(c2ccc(Cl)cc2)C1 + CNC(=O)c1ccc(Nc2nc(OC3CCCC3)c3c(-c4ccc5nc(C)oc5c4)c[nH]c3n2)c(OC)c1 ?
Marked response: inactive

Exam item: What outcome does the record of this test show for O=C(c1cc(Cc2n[nH]c(=O)c3ccccc23)ccc1F)N1CCN(C(=O)C2CC2)CC1 + CN1CCN(c2cc(C(=O)Nc3cc4cc(-c5cnn(C)c5)ccc4cn3)ccn2)CC1 ?
Marked response: inactive

Exam item: What outcome does the record of this test show for CC1COCCN1c1cc(C2(S(C)(=N)=O)CC2)nc(-c2ccnc3[nH]ccc23)n1 (stereo unspecified) + CN1CCN(c2cc(C(=O)Nc3cc4cc(-c5cnn(C)c5)ccc4cn3)ccn2)CC1 ?
Marked response: inactive

Exam item: What outcome does the record of this test show for COC1C=CCC(C)C(C)S(=O)(=O)NC(=O)c2ccc3c(c2)N(CC2CCC21)CC1(CCCc2cc(Cl)ccc21)CO3 (stereo unspecified) + CN1CCN(c2cc(C(=O)Nc3cc4cc(-c5cnn(C)c5)ccc4cn3)ccn2)CC1 ?
Marked response: active

Exam item: What outcome does the record of this test show for COc1cccc2c1C(=O)c1c(O)c3c(c(O)c1C2=O)CC(O)(C(=O)CO)CC3OC1CC(N)C(O)C(C)O1 (stereo unspecified) + CNC(=O)c1ccc(Nc2nc(OC3CCCC3)c3c(-c4ccc5nc(C)oc5c4)c[nH]c3n2)c(OC)c1 ?
Marked response: inactive

Exam item: What outcome does the record of this test show for CC(Nc1ccc2c(c1)OCCn1cc(N3C(=O)OCC3C(F)F)nc1-2)C(N)=O (stereo unspecified) + CN1CCN(c2cc(C(=O)Nc3cc4cc(-c5cnn(C)c5)ccc4cn3)ccn2)CC1 ?
Marked response: inactive

Exam item: What outcome does the record of this test show for Nc1ccccc1NC(=O)c1ccc(CNC(=O)OCc2cccnc2)cc1 + CN1CCN(c2cc(C(=O)Nc3cc4cc(-c5cnn(C)c5)ccc4cn3)ccn2)CC1 ?
Marked response: active

Exam item: What outcome does the record of this test show for CC(Nc1ccc2c(c1)OCCn1cc(N3C(=O)OCC3C(F)F)nc1-2)C(N)=O (stereo unspecified) + CNC(=O)c1ccc(Nc2nc(OC3CCCC3)c3c(-c4ccc5nc(C)oc5c4)c[nH]c3n2)c(OC)c1 ?
Marked response: inactive

Exam item: What outcome does the record of this test show for COc1ccc([C@@H](O)c2cc(-c3ncnc4cc(N5CCOCC5)ccc34)c(F)cc2Cl)nn1 + CN1CCN(c2cc(C(=O)Nc3cc4cc(-c5cnn(C)c5)ccc4cn3)ccn2)CC1 ?
Marked response: inactive
